# EC50 annotations
# Tested On: T1, human BTN2A1 CFP(Nter)-fusion protein expressed on 293F BTN3/BTN2 KO cells (human, UniProt Q7KYR7 29-527)
# T1 construct: also called pcDNA3-Zeo-BTN2A1-CFP; not shown: CFP fused at the N-terminus (CFP(Nter)-fusion)
# T1 sequence: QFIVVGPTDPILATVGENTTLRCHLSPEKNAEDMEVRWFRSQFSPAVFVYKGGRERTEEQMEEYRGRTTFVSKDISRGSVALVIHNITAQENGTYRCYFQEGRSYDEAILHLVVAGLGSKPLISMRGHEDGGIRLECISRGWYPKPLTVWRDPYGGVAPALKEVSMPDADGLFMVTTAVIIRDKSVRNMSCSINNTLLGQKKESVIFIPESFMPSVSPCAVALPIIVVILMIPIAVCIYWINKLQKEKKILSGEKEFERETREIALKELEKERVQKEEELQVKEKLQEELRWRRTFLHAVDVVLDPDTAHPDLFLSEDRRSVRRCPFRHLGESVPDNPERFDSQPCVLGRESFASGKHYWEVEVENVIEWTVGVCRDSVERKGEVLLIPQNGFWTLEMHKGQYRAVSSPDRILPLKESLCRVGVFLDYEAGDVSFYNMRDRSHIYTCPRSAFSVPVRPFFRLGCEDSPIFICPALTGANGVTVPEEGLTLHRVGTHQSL
# Experimental Details: flow cytometry on BTN2A1-transfected 293F BTN3/BTN2 KO cells (summary table, repeats the 7th table)
Report the value in µg/mL with no unit label.

[[record]]
binder = "mAb6 (mouse anti-human BTN2 mAb 8.16) (antibody, V domains shown, Mouse IgG1 purified from hybridoma supernatant; also called CNCM I-5236) VH: EVKLLESGGGLVQPGGSLKLSCAASGFDFSGYWMTWVRQAPGKGLEWIGEINPDSSTINYTPSLRDKFIISRDNAKNTLYLQMSKVRSEDTALYFCARGSYYPSYWGQGTLVTVSA VL: DIVLTQSPASLAVSLGQRATISCRASKSVSSSGYSYMNWYQQKPGQPPKLLIYLASNLESGVPARFSGSGSGTDFTLNIHPVEDEDAATYYCQHSRELPHTFGGGTKLEIK"
assay_readout = "EC50"
reported_value = 0.08

[[record]]
binder = "mAb5 (mouse anti-human BTN2 mAb 8.15) (antibody, V domains shown, Mouse IgG1 purified from hybridoma supernatant; also called CNCM I-5235) VH: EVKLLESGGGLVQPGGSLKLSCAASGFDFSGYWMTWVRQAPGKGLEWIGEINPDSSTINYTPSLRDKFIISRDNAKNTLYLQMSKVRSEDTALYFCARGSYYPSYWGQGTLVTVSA VL: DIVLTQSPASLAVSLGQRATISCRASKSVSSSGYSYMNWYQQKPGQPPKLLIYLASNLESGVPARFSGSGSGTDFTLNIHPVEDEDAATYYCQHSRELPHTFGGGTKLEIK"
assay_readout = "EC50"
reported_value = 0.08


The recorded EC50 for mAb1 (mouse anti-human BTN2 mAb 4.15) (antibody, V domains shown, Mouse IgG1 purified from hybridoma supernatant; also called CNCM I-5231) VH: QVQLQQSGAELVKPGASVKLSCKASGYIFTSYDINWVRQRPEQGLEWIGWIFPGDDSIIQNEKFKGKATLTTDKSSSTVYMQLSRLTSEDSAVYFCARLGPLRGFTYWGQGTLVTVSA VL: DIVLTQSPASLAVSLGQRATISCRASESVDRYGSSFMHWYQQKPGQPPKLLIYRASNLESGIPARFSGSGSRTDFTLTINPVEADDVATYYCQQSNEDPWTFGGGTKLEIK is 0.06

The recorded EC50 for mAb4 (mouse anti-human BTN2 mAb 7.48) (antibody, V domains shown, Mouse IgG1 purified from hybridoma supernatant; also called CNCM I-5234) VH: EVQLVESGGDLVKPGGSLKLSCAASGFTFSDFYMYWVRRTPEKRLEWVATISDGGSHTYYPDSVKGRFTISRDNAKNNLYLQMRSLKSEDTAMYYCGRDTTIITPYWGQGTLVTVSA VL: QSVVTQESALTTSPGETVTLTCRSSTGAVTTSNYANWVQEKPDHLFTGLIGGTNNRAPGVPARFSGSLIGDKAALTITGAQTEDEAIYFCGLWYSNHWVFGGGTKLTVL is 0.02

The recorded EC50 for mAb3 (mouse anti-human BTN2 mAb 7.28) (antibody, V domains shown, Mouse IgG1 purified from hybridoma supernatant; also called CNCM I-5233) VH: QVHLQQSGAELMKPGASVKISCKATGYTFSSYWIEWVKQRPGHGREWIGEILPGSGSTKYNEKFRGKATFAADTSSNTAYVQLSSLTSEDSAVYYCARLKGYYGGGAMDYWGQGTSVTVSS VL: DVQITQSPSYLAASPGETITINCRASKSISKYLAWYQEKPGKTNELLIYSGSTLQSGIPSRFSGSGSGTDFTLTISSLEPEDFAMYYCQQHNEYPWTFGGGTKLEIK is 0.02

The recorded EC50 for mAb2 (mouse anti-human BTN2 mAb 5.28) (antibody, V domains shown, Mouse IgG1 purified from hybridoma supernatant; also called CNCM I-5232) VH: QIQLVQSGPELKKPGETVKISCKASGYTFTDYSMNWVKQAPGKGLKWVGRINTETGEPTYADDFKGRFAFSLETSASTAYLQIKNLKNEDTATYFCVRDYAKRWGQGTSVTVSS VL: DIVMTQSHKFMSTSVGDRVSITCKASQDVITAVAWYQQKPGQSPKLLIYSTSYRYTGVPDRFTGSGSGTDFTFTISSVQAEDLAVYYCLQHYTTPWTFGGGTKLEIK is 0.04
